# protocol_summary: Inhibition of gamma-secretase-mediated cleavage of human APP Swedish and London mutation expressed in HEK293 cell membrane
# Format: cell-based
pIC50: −log10 of the molar value.
Response key: class 1 means pIC50 >= 8; class 0 means pIC50 < 8.

Solved cases (5 shown):
- record_smiles: "CCS(=O)(=O)NC[C@@H]1CCC[C@@]2(S(=O)(=O)c3ccc(C(F)(F)F)cc3)c3c(F)ccc(F)c3OC[C@@H]12"
  answer_label: "class 0"
- record_smiles: "O=S(=O)(NC[C@@H]1CCC[C@@]2(S(=O)(=O)c3ccc(Cl)cc3)c3c(F)ccc(F)c3OC[C@@H]12)C1CCCCC1"
  answer_label: "class 0"
- record_smiles: "CC(C)S(=O)(=O)NC[C@@H]1CCC[C@@]2(S(=O)(=O)c3ccc(Cl)cc3)c3c(F)ccc(F)c3OC[C@@H]12"
  answer_label: "class 1"
- record_smiles: "CCCS(=O)(=O)NC[C@@H]1CCC[C@@]2(S(=O)(=O)c3ccc(Cl)cc3)c3c(F)ccc(F)c3OC[C@@H]12"
  answer_label: "class 1"
- record_smiles: "O=S(=O)(NC[C@@H]1CCC[C@@]2(S(=O)(=O)c3ccc(Cl)cc3)c3c(F)ccc(F)c3OC[C@@H]12)N1CCOCC1"
  answer_label: "class 1"

Assess whether reported pIC50 for O=S1(=O)NCCN1C[C@@H]1CCC[C@@]2(S(=O)(=O)c3ccc(C(F)(F)F)cc3)c3c(F)ccc(F)c3OC[C@@H]12 sits at 8 or higher.
class 0

Moving on to O=S1(=O)CCCCN1C[C@@H]1CCC[C@@]2(S(=O)(=O)c3ccc(C(F)(F)F)cc3)c3c(F)ccc(F)c3OC[C@@H]12
class 0

Moving on to CCN(C[C@@H]1CCC[C@@]2(S(=O)(=O)c3ccc(C(F)(F)F)cc3)c3c(F)ccc(F)c3OC[C@@H]12)S(=O)(=O)C1CC1
class 0

Moving on to CS(=O)(=O)N(C[C@@H]1CCC[C@@]2(S(=O)(=O)c3ccc(Cl)cc3)c3c(F)ccc(F)c3OC[C@@H]12)C1CC1
class 1

Moving on to CCN(C[C@@H]1CCC[C@@]2(S(=O)(=O)c3ccc(C(F)(F)F)cc3)c3c(F)ccc(F)c3OC[C@@H]12)S(C)(=O)=O
class 0

Moving on to O=S(=O)(NC[C@@H]1CCC[C@@]2(S(=O)(=O)c3ccc(Cl)cc3)c3c(F)ccc(F)c3OC[C@@H]12)C1CC1
class 1

Values were extracted from ChEMBL document CHEMBL1158621.
